Source listed as paper PMC6018403.

Assay: Multi-component pharmacokinetic study of GQD, GQD-GC and single herb extracts in rats (plasma, LC/MS/MS)
Format: in vivo, Sprague-Dawley rats
Details: male, Sprague-Dawley, rat, in vivo; GQD group: rats, oral GQD extract 18.9 g/kg, plasma; read-out: T1/2 (converted)
Listed here: items and their measured half-life.

COMPOUND	half-life / h
O=C(/C=C/c1ccc(O[C@@H]2O[C@H](CO)[C@@H](O)[C@H](O)[C@H]2O)cc1)c1ccc(O)cc1O	1.62
COc1cc(-c2coc3c(C4OC(COC5OCC(O)(CO)C5O)C(O)C(O)C4O)c(O)ccc3c2=O)ccc1O (stereo not drawn)	1.04
O=c1c(-c2ccc(O)cc2)coc2cc(O[C@@H]3O[C@H](CO)[C@@H](O)[C@H](O)[C@H]3O)ccc12	3.96

###

Experiment: Multi-component pharmacokinetic study of GQD, GQD-GC and single herb extracts in rats (plasma, LC/MS/MS)
Type: in vivo, Sprague-Dawley rats
Settings: male, Sprague-Dawley, rat, in vivo, po, 9.45 g/kg, GG (Ge-Gen) group: rats, oral extract 9.45 g/kg, plasma; read-out: AUClast
Listed here: items and their measured AUC(0-t).
MEASURED ATTRIBUTE: AUC(0-t) (ng·h/mL)

COMPOUND	MEASURED ATTRIBUTE	MEASUREMENT UNIT	OBSERVED
COc1cc(-c2coc3c(C4OC(COC5OCC(O)(CO)C5O)C(O)C(O)C4O)c(O)ccc3c2=O)ccc1O (centres unmarked) [Compound 37, 3'-methoxymirificin]	AUC(0-t)	ng·h/mL	47.4
O=c1c(-c2ccc(O)cc2)coc2cc(O[C@@H]3O[C@H](CO)[C@@H](O)[C@H](O)[C@H]3O)ccc12 [Compound 1, Daidzin]	AUC(0-t)	ng·h/mL	290

###

Experiment: in vivo
Design: species or system Sprague-Dawley rats
Details: male, Sprague-Dawley, rat, po, 59.4 mg/kg

QUERY SMILES	MEASUREMENT UNIT	Cmax
COc1ccc2cc3[n+](cc2c1OC)CCc1cc2c(cc1-3)OCO2	µg/mL	0.0122

###

Test: Multi-component pharmacokinetic study of GQD, GQD-GC and single herb extracts in rats (plasma, LC/MS/MS)
Type: in vivo, Sprague-Dawley rats
Conditions: male, Sprague-Dawley, rat, plasma, po, 16.5 g/kg; GQD−GC group: rats, oral 16.5 g/kg, plasma; read-out: AUClast
Listed here: items and their measured AUC(0-t).

QUERY SMILES	AUC(0-t)
COc1cc2c(cc1O)CC[n+]1cc3c(OC)c(OC)ccc3cc1-2	105 ng·h/mL
COc1ccc2cc3[n+](cc2c1OC)CCc1cc2c(cc1-3)OCO2	149 ng·h/mL

###

Listed here: items and their measured Cmax.
Assay: Multi-component pharmacokinetic study of GQD, GQD-GC and single herb extracts in rats (plasma, LC/MS/MS)
Format: in vivo, Sprague-Dawley rats
Conditions: male, Sprague-Dawley, rat; HL (Huang-Lian) group: rats, oral extract 3.54 g/kg, plasma; read-out: Cmax

COMPOUND	Cmax
COc1cc2c(cc1OC)-c1cc3ccc4c(c3c[n+]1CC2)OCO4 [Compound 22, epiberberine]	3.53 ng/mL
COc1ccc2c(c1O)-c1c(O)c(OC)cc3c1[C@H](C2)[N+](C)(C)CC3	76.4 ng/mL
COc1cc2c(cc1O)CC[n+]1cc3c(OC)c(OC)ccc3cc1-2	6.6 ng/mL
COc1ccc2cc3[n+](cc2c1OC)CCc1cc2c(cc1-3)OCO2	76.7 ng/mL
